Data credit: patent US20180105569A1

# target_or_test_system: T1, GIP receptor (UniProt P48546 22-466, limits assumed)
# T1 sequence (looked up): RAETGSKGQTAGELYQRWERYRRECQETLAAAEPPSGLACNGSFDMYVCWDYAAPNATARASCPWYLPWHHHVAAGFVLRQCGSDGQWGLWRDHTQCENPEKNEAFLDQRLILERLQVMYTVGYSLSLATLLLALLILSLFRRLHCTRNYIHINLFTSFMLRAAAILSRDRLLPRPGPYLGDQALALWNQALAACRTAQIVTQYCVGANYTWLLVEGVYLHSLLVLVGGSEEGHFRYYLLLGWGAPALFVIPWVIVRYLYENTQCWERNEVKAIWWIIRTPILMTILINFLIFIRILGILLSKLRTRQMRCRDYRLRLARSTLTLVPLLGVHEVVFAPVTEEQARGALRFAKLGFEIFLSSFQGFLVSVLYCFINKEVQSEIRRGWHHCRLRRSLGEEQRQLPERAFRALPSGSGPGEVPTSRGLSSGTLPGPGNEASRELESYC
# measurement_description: cell-based or functional assay
Numbered stars: 1 amine (or outer) side, 2 acyl side, 3 side chain; on linkers, the order of the positions; unused ones are H or OH. Square brackets hold non-standard residues; d marks the D form. Side chains are listed from the residue outwards. Ends that are not written are not given here. * marks the point of attachment. β2His = Beta2-His (beta2-homo amino acid form of His; γGlu = O=C(O)[C@H](CCC(=O)[*:2])N[*:1]; Desaminohistidyl = O=C(CCc1c[nH]cn1)*; Palmitoyl = CCCCCCCCCCCCCCCC(=O)*; Aib = CC(C)(N)C(=O)O
Classify: T when EC50 at GIP Receptor (cAMP luciferase reporter, HEK293) is strictly less than 0.008 nM; F when EC50 at GIP Receptor (cAMP luciferase reporter, HEK293) is not.

INSERT INTO assay_data (binder, class_name) VALUES
  ('[Desaminohistidyl]GQGTFTSDK([γGlu-Palmitoyl])SKYLDERAAQDFVQWLLEGGPSSGAPPPS-NH2 [peptide of SEQ ID NO: 31]', 'F'),
  ('Ac-[dY]AQGTFTSDK([γGlu-Palmitoyl])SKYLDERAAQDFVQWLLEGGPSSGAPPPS-NH2 [peptide of SEQ ID NO: 12]', 'T'),
  ('H[Aib]QGTFTSDK([γGlu-Palmitoyl])SKYLDERAAQDFVQWLLDGGPSSGAPPPS-NH2 [peptide of SEQ ID NO: 10]', 'T'),
  ('Ac-[dY]GQGTFTSDK([γGlu-Palmitoyl])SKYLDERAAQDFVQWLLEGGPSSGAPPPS-NH2 [peptide of SEQ ID NO: 14]', 'T'),
  ('Ac-[dH]AQGTFTSDK([γGlu-Palmitoyl])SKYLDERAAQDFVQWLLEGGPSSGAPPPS-NH2 [peptide of SEQ ID NO: 13]', 'T'),
  ('[β2His]AQGTFTSDK([γGlu-Palmitoyl])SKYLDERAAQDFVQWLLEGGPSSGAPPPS-NH2 [peptide of SEQ ID NO: 25]', 'F'),
  ('Ac-QGQGTFTSDK([γGlu-Palmitoyl])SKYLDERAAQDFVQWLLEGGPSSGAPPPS-NH2 [peptide of SEQ ID NO: 34]', 'F'),
  ('[dH]GQGTFTSDK([γGlu-Palmitoyl])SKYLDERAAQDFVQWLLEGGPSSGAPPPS-NH2 [peptide of SEQ ID NO: 23]', 'F'),
  ('[dH]AQGTFTSDK([γGlu-Palmitoyl])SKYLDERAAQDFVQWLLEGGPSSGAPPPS-NH2 [peptide of SEQ ID NO: 16]', 'F'),
  ('[dH]PQGTFTSDK([γGlu-Palmitoyl])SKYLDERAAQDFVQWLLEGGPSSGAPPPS-NH2 [peptide of SEQ ID NO: 27]', 'F');
